Below, each of the molecules is paired with its reported efficacy value.
# Test Settings: Ebola virus entry assay, green fluorescence channel
Entries with a potency or affinity are not part of this list.
Value expressed in %; do not type the unit.

Fill in efficacy for record CCOC(=O)[C@H](CCc1ccccc1)N[C@H]1CCc2ccccc2N(CC(=O)O)C1=O
88

###

# Test Settings: Ebola virus entry assay, blue channel fluorescence
Calls of active or inactive are those of the source. No rule for the calls is given here.
Answer with one of the outcomes YES for active, NO for inactive

Clc1ccc2c(c1)CCc1cccnc1C2=C1CCNCC1 :: YES

Name the outcome recorded for CN1CCN(CCCN2c3ccccc3Sc3ccc(S(=O)(=O)N(C)C)cc32)CC1 in the assay.
YES

Name the outcome recorded for O=S(=O)(c1cccc2cnccc12)N1CCCNCC1 in the assay.
NO

Name the outcome recorded for C/C=C/c1ccc(O)c(OC)c1 in the assay.
NO
